tested on: 817829-284-R-J1-PDC complex spheroid viability; assay: Anticancer human tumor 817829-284-R-J1-PDC patient-derived colon adenocarcinoma cell line growth inhibition [POLQ]; details: curve of first compound; second compound 3.16 µM;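 note: spheroids exposed to compounds for 7 days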
pIC50: −log10 of the molar value.
parameter: pIC50

Consider the worked cases shown below.
INSERT INTO assay_data (compound, result) VALUES
  ('COc1cccc2c1C(=O)c1c(O)c3c(c(O)c1C2=O)CC(O)(C(=O)CO)CC3OC1CC(N)C(O)C(C)O1 (stereo not drawn) + Nc1ccc(C#CCN(C(=O)Cc2ncc(C(F)(F)F)cc2C(F)(F)F)c2ccc(F)cc2)nn1', '> 7.50'),
  ('CCc1c2c(nc3ccc(O)cc13)-c1cc3c(c(=O)n1C2)COC(=O)[C@]3(O)CC + Nc1ccc(C#CCN(C(=O)Cc2ncc(C(F)(F)F)cc2C(F)(F)F)c2ccc(F)cc2)nn1', '> 8.50');

Continue with the compound presented below.
Lab note: COc1cc2cc(C(=O)CCC(=O)O)sc2cc1OC + COC1C(OC(N)=O)C(O)C(Oc2ccc3c(O)c(NC(=O)c4ccc(O)c(CC=C(C)C)c4)c(=O)oc3c2C)OC1(C)C gave pIC50 of < 5.00
